conditions: in isopropanol, 288.15 K
MEASURED_PROPERTY: solubility (mole fraction)

Reported solubility (mole fraction) of O=C(O)Cc1ccccc1[N+](=O)[O-] : 0.0182

* * *

conditions: in n-butanol, 308.15 K
MEASURED_PROPERTY: solubility (mole fraction)
Kindly provide the number alone.

Reported solubility (mole fraction) of O=C(O)Cc1ccccc1[N+](=O)[O-] : 0.0382

* * *

settings: in acetonitrile, 303.15 K
MEASURED_PROPERTY: solubility (mole fraction)
Kindly provide the number alone.

Reported solubility (mole fraction) of O=C(O)Cc1ccccc1[N+](=O)[O-] : 0.0255

* * *

details: in n-butanol, 288.15 K
MEASURED_PROPERTY: solubility (mole fraction)
Kindly provide the number alone.

Reported solubility (mole fraction) of O=C(O)Cc1ccccc1[N+](=O)[O-] : 0.0198

* * *

conditions: in n-propanol, 308.15 K
MEASURED_PROPERTY: solubility (mole fraction)
Kindly provide the number alone.

Reported solubility (mole fraction) of O=C(O)Cc1ccccc1[N+](=O)[O-] : 0.0441

* * *

settings: in cyclohexane, 293.15 K
MEASURED_PROPERTY: solubility (mole fraction)
Kindly provide the number alone.

Reported solubility (mole fraction) of O=C(O)Cc1ccccc1[N+](=O)[O-] : 1.65e-05

* * *

conditions: in ethanol, 323.15 K
MEASURED_PROPERTY: solubility (mole fraction)

Reported solubility (mole fraction) of O=C(O)Cc1ccccc1[N+](=O)[O-] : 0.104

* * *

details: in acetonitrile, 318.15 K
MEASURED_PROPERTY: solubility (mole fraction)
Kindly provide the number alone.

Reported solubility (mole fraction) of O=C(O)Cc1ccccc1[N+](=O)[O-] : 0.0437

* * *

conditions: in water, 303.15 K
MEASURED_PROPERTY: solubility (mole fraction)

Reported solubility (mole fraction) of O=C(O)Cc1ccccc1[N+](=O)[O-] : 0.000185

* * *

conditions: in acetonitrile, 293.15 K
MEASURED_PROPERTY: solubility (mole fraction)
Kindly provide the number alone.

Reported solubility (mole fraction) of O=C(O)Cc1ccccc1[N+](=O)[O-] : 0.0184

* * *

conditions: in ethanol, 298.15 K
MEASURED_PROPERTY: solubility (mole fraction)
Kindly provide the number alone.

Reported solubility (mole fraction) of O=C(O)Cc1ccccc1[N+](=O)[O-] : 0.0432

* * *

conditions: in methanol, 308.15 K
MEASURED_PROPERTY: solubility (mole fraction)
Kindly provide the number alone.

Reported solubility (mole fraction) of O=C(O)Cc1ccccc1[N+](=O)[O-] : 0.0769

* * *

settings: in isopropanol, 313.15 K
MEASURED_PROPERTY: solubility (mole fraction)
Kindly provide the number alone.

Reported solubility (mole fraction) of O=C(O)Cc1ccccc1[N+](=O)[O-] : 0.0414

* * *

conditions: in n-butanol, 323.15 K
MEASURED_PROPERTY: solubility (mole fraction)

Reported solubility (mole fraction) of O=C(O)Cc1ccccc1[N+](=O)[O-] : 0.0618

* * *

conditions: in water, 308.15 K
MEASURED_PROPERTY: solubility (mole fraction)
Kindly provide the number alone.

Reported solubility (mole fraction) of O=C(O)Cc1ccccc1[N+](=O)[O-] : 0.000248

* * *

conditions: in ethylene glycol, 318.15 K
MEASURED_PROPERTY: solubility (mole fraction)

Reported solubility (mole fraction) of O=C(O)Cc1ccccc1[N+](=O)[O-] : 0.0473

* * *

conditions: in cyclohexane, 298.15 K
MEASURED_PROPERTY: solubility (mole fraction)
Kindly provide the number alone.

Reported solubility (mole fraction) of O=C(O)Cc1ccccc1[N+](=O)[O-] : 2.23e-05

* * *

conditions: in n-propanol, 313.15 K
MEASURED_PROPERTY: solubility (mole fraction)
Kindly provide the number alone.

Reported solubility (mole fraction) of O=C(O)Cc1ccccc1[N+](=O)[O-] : 0.0533

* * *

settings: in acetonitrile, 288.15 K
MEASURED_PROPERTY: solubility (mole fraction)

Reported solubility (mole fraction) of O=C(O)Cc1ccccc1[N+](=O)[O-] : 0.016

* * *

conditions: in isopropanol, 303.15 K
MEASURED_PROPERTY: solubility (mole fraction)
Kindly provide the number alone.

Reported solubility (mole fraction) of O=C(O)Cc1ccccc1[N+](=O)[O-] : 0.0302

* * *

conditions: in water, 288.15 K
MEASURED_PROPERTY: solubility (mole fraction)
Kindly provide the number alone.

Reported solubility (mole fraction) of O=C(O)Cc1ccccc1[N+](=O)[O-] : 7.8e-05

* * *

settings: in n-propanol, 298.15 K
MEASURED_PROPERTY: solubility (mole fraction)
Kindly provide the number alone.

Reported solubility (mole fraction) of O=C(O)Cc1ccccc1[N+](=O)[O-] : 0.0312

* * *

details: in n-butanol, 303.15 K
MEASURED_PROPERTY: solubility (mole fraction)

Reported solubility (mole fraction) of O=C(O)Cc1ccccc1[N+](=O)[O-] : 0.0323

* * *

conditions: in ethyl acetate, 313.15 K
MEASURED_PROPERTY: solubility (mole fraction)
Kindly provide the number alone.

Reported solubility (mole fraction) of O=C(O)Cc1ccccc1[N+](=O)[O-] : 0.0764

* * *

conditions: in ethylene glycol, 323.15 K
MEASURED_PROPERTY: solubility (mole fraction)
Kindly provide the number alone.

Reported solubility (mole fraction) of O=C(O)Cc1ccccc1[N+](=O)[O-] : 0.0561

* * *

details: in ethanol, 313.15 K
MEASURED_PROPERTY: solubility (mole fraction)

Reported solubility (mole fraction) of O=C(O)Cc1ccccc1[N+](=O)[O-] : 0.0743

* * *

conditions: in isopropanol, 308.15 K
MEASURED_PROPERTY: solubility (mole fraction)

Reported solubility (mole fraction) of O=C(O)Cc1ccccc1[N+](=O)[O-] : 0.035

* * *

conditions: in cyclohexane, 323.15 K
MEASURED_PROPERTY: solubility (mole fraction)
Kindly provide the number alone.

Reported solubility (mole fraction) of O=C(O)Cc1ccccc1[N+](=O)[O-] : 8.34e-05

* * *

details: in isobutanol, 323.15 K
MEASURED_PROPERTY: solubility (mole fraction)
Kindly provide the number alone.

Reported solubility (mole fraction) of O=C(O)Cc1ccccc1[N+](=O)[O-] : 0.0465

* * *

settings: in acetonitrile, 308.15 K
MEASURED_PROPERTY: solubility (mole fraction)
Kindly provide the number alone.

Reported solubility (mole fraction) of O=C(O)Cc1ccccc1[N+](=O)[O-] : 0.0304

* * *

settings: in n-propanol, 328.15 K
MEASURED_PROPERTY: solubility (mole fraction)

Reported solubility (mole fraction) of O=C(O)Cc1ccccc1[N+](=O)[O-] : 0.0934

* * *

details: in n-propanol, 288.15 K
MEASURED_PROPERTY: solubility (mole fraction)
Kindly provide the number alone.

Reported solubility (mole fraction) of O=C(O)Cc1ccccc1[N+](=O)[O-] : 0.0219

* * *

settings: in ethyl acetate, 288.15 K
MEASURED_PROPERTY: solubility (mole fraction)
Kindly provide the number alone.

Reported solubility (mole fraction) of O=C(O)Cc1ccccc1[N+](=O)[O-] : 0.0323

* * *

conditions: in 1,4-dioxane, 323.15 K
MEASURED_PROPERTY: solubility (mole fraction)
Kindly provide the number alone.

Reported solubility (mole fraction) of O=C(O)Cc1ccccc1[N+](=O)[O-] : 0.139

* * *

settings: in DMF, 328.15 K
MEASURED_PROPERTY: solubility (mole fraction)
Kindly provide the number alone.

Reported solubility (mole fraction) of O=C(O)Cc1ccccc1[N+](=O)[O-] : 0.445

* * *

settings: in water, 293.15 K
MEASURED_PROPERTY: solubility (mole fraction)
Kindly provide the number alone.

Reported solubility (mole fraction) of O=C(O)Cc1ccccc1[N+](=O)[O-] : 0.000105

* * *

conditions: in water, 318.15 K
MEASURED_PROPERTY: solubility (mole fraction)
Kindly provide the number alone.

Reported solubility (mole fraction) of O=C(O)Cc1ccccc1[N+](=O)[O-] : 0.000426

* * *

details: in cyclohexane, 283.15 K
MEASURED_PROPERTY: solubility (mole fraction)
Kindly provide the number alone.

Reported solubility (mole fraction) of O=C(O)Cc1ccccc1[N+](=O)[O-] : 8.88e-06

* * *

conditions: in n-butanol, 298.15 K
MEASURED_PROPERTY: solubility (mole fraction)
Kindly provide the number alone.

Reported solubility (mole fraction) of O=C(O)Cc1ccccc1[N+](=O)[O-] : 0.0271

* * *

settings: in cyclohexane, 288.15 K
MEASURED_PROPERTY: solubility (mole fraction)
Kindly provide the number alone.

Reported solubility (mole fraction) of O=C(O)Cc1ccccc1[N+](=O)[O-] : 1.22e-05

* * *

details: in isopropanol, 283.15 K
MEASURED_PROPERTY: solubility (mole fraction)
Kindly provide the number alone.

Reported solubility (mole fraction) of O=C(O)Cc1ccccc1[N+](=O)[O-] : 0.0154

Reference source for all entries: BigSolDB 2.1
